We begin with log10(IC50) values for Protein kinase C alpha type (Homo sapiens, UniProt P17252), as collected from the published literature.
In plain terms, each number is the log10 of measured IC50 in µM.

// below: answered compounds
| compound | log10(IC50) |
| --- | --- |
| CN1C2CCC1C(NC(=O)c1ccc(O)cc1)C(OC(=O)c1cc(O)c(C(=O)c3c(O)cccc3C(=O)O)c(O)c1)C2 (stereo in doubt; syn) | 1.54 |
| CCn1sc(=O)n(Cc2ccccc2)c1=O | 1.14 |
| NN1C(=O)c2c(c3c4ccccc4[nH]c3c3[nH]c4ccccc4c23)C1=O | 1.64 |
| c1ccc(Nc2nccc(-c3cccnc3)n2)cc1 | 1.02 |

For Protein kinase C alpha type (Homo sapiens, UniProt P17252), give log10(IC50) of the listed compound: COC1C(CO)OC(n2c3c(Cl)cccc3c3c4c(c5c6cccc(Cl)c6[nH]c5c32)C(=O)N(O)C4=O)C(O)C1O (centres undefined)
1.83

For Protein kinase C alpha type (Homo sapiens, UniProt P17252), give log10(IC50) of the listed compound: "O=C(O)c1cccc(Nc2nccc(-c3cccnc3)n2)c1"
1.65

For Protein kinase C alpha type (Homo sapiens, UniProt P17252), give log10(IC50) of the listed compound: "Cc1ccc(NC(=O)c2ccccc2)cc1Nc1nccc(-c2cccnc2)n1"
1.86
